- Target or system: Serine/threonine-protein kinase 3 (Homo sapiens) (UniProt Q13188)
- Sequence (Q13188 whole entry): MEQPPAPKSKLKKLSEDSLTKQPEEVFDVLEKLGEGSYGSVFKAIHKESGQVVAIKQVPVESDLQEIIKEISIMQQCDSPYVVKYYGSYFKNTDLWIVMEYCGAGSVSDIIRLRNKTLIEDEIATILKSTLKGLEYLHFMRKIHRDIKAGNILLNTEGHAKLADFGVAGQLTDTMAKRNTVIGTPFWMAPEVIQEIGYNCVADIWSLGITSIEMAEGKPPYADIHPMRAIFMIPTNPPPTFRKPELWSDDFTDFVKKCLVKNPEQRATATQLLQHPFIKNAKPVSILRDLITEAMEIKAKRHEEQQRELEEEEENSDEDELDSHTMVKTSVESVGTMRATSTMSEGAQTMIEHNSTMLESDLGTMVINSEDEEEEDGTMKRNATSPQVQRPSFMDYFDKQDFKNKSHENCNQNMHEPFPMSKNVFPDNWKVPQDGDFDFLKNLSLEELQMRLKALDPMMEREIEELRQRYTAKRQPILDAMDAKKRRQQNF
- Protocol: Inhibition of STK3 (unknown origin) using fluorescein-labelled Ser/Thr-07 peptide as substrate incubated for 1 hr in presence of ATP at Km concentration by Z-LYTE assay
Observation type: IC50 (nM)
The response must be a number in nM with no trailing unit.

Compound	IC50, nM
Nc1ncc(-c2cc([N+](=O)[O-])ccc2F)cc1-c1ccc2c(c1)CCNC2=O	40
Nc1ncc(-c2cccc3ncsc23)cc1-c1ccc2c(c1)CCNC2=O	40
N#Cc1cccc(-c2cnc(N)c(-c3ccc4c(c3)CCNC4=O)c2)c1	40
Nc1ncc(-c2scnc2Cl)cc1-c1ccc2c(c1)CCNC2=O	40
Nc1ncc(-c2cc3c(cc2F)OCC(=O)N3)cc1-c1ccc2c(c1)CCNC2=O	40

Query :: Bench note: what IC50 did `Nc1ncc(-c2cc([N+](=O)[O-])c(Cl)cc2F)cc1-c1ccc2c(c1)CCNC2=O` show?
Result :: 40

Numbers sourced from ChEMBL document CHEMBL4804281.
